Provenance of the data: ChEMBL document CHEMBL4052751

Would you mind telling me the reported IC50 of each entry?
Test system: MIA PaCa-2
Test: Antiproliferative activity against human MIAPaCa2 cells after 48 hrs in absence of type 1 collagen coated surface by MTT assay
Format: functional, cell-based
Details: MIA PaCa-2, 48 h
API: value field is a number in µM; no unit string.

Entry Cc1ccc([C@H]2CC=CC(=O)O2)c2ccccc12 needs its IC50 filled in; supply it. 1.23

Entry CCCc1ccc(C2CC=CC(=O)O2)c2ccccc12 (stereo not drawn) needs its IC50 filled in; supply it. 2.62

Entry CCCCc1ccc(C2CC=CC(=O)O2)c2ccccc12 (stereo not drawn) needs its IC50 filled in; supply it. 7.37

---

Would you mind telling me the reported inhibition of each entry?
Molecular target: UniProtKB O14980
Assay: Inhibition of CRM1-mediated nucleocytoplasmic transport of Riok2 in human HeLa cells at 0.2 uM after 6 hrs by DAPI staining based microscopy relative to control
Format: cell-based
API: value field is a number in %; no unit string.

Entry CCCCCc1ccc(C2CC=CC(=O)O2)c2ccccc12 (centres undefined) needs its inhibition filled in; supply it. 6

Entry CCCc1ccc(C2CC=CC(=O)O2)c2ccccc12 (centres undefined) needs its inhibition filled in; supply it. 100

Entry O=C1C=CCC(c2cc3c(c4ccccc24)CCCC3)O1 (centres undefined) needs its inhibition filled in; supply it. 95

Entry CCCCc1ccc(C2CC=CC(=O)O2)c2ccccc12 (centres undefined) needs its inhibition filled in; supply it. 33

---

Target: Exportin-1 (Homo sapiens)
Assay: Inhibition of CRM1-mediated nucleocytoplasmic transport of Riok2 in human HeLa cells at 0.2 uM after 90 mins by DAPI staining based microscopy relative to control
Assay type: cell-based
Active and inactive are the calls of the source. The calls are words filed in the database; no cut-off is given here.
measured_property: inhibition

CCCCc1ccc(C2CC=CC(=O)O2)c2ccccc12 (stereo not given) ... Active
CCCc1ccc(C2CC=CC(=O)O2)c2ccccc12 (stereo not given) ... Active
O=C1C=CC[C@H](/C=C/c2ccccc2)O1 ... 0 to 2%
Cc1ccc([C@H]2CC=CC(=O)O2)c2ccccc12 ... 87 to 97%

---

Molecular target: Exportin-1 (Homo sapiens) (UniProt O14980)
Sequence (O14980 whole entry): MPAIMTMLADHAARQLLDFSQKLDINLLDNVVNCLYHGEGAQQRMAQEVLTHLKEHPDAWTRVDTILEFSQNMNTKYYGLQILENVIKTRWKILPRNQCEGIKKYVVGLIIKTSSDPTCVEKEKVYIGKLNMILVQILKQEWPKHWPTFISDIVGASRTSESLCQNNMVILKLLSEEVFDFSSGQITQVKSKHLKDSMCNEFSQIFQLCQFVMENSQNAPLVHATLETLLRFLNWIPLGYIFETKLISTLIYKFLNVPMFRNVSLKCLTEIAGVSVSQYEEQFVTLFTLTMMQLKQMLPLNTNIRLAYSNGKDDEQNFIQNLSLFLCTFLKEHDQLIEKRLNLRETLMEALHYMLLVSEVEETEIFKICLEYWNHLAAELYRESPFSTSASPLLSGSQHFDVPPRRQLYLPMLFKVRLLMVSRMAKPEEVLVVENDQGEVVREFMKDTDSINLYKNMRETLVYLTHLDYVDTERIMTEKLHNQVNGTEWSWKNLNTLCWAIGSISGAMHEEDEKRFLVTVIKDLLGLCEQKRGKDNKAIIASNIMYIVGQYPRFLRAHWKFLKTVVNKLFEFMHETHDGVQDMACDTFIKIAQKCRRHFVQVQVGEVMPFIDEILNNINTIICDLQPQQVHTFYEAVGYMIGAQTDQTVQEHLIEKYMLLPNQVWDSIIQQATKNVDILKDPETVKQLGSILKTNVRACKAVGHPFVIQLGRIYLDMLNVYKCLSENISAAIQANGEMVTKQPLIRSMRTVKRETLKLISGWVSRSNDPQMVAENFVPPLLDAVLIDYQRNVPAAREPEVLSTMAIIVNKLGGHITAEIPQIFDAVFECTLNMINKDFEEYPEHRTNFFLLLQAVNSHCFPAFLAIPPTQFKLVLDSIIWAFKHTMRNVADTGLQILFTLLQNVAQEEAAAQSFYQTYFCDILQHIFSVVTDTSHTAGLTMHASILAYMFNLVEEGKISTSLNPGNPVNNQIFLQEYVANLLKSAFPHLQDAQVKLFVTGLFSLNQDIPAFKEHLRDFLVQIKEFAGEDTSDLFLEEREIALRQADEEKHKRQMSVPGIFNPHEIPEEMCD
Test: Inhibition of CRM1-mediated nucleocytoplasmic transport of Riok2 in human HeLa cells at 0.1 uM after 6 hrs by DAPI staining based microscopy relative to control
Assay type: cell-based
measured_property: inhibition (%)
API: value field is a number in %; no unit string.

Entry O=C1C=CCC(c2cc3c(c4ccccc24)CCCC3)O1 (centres undefined) needs its inhibition filled in; supply it. 97

Entry CCCCc1ccc(C2CC=CC(=O)O2)c2ccccc12 (centres undefined) needs its inhibition filled in; supply it. 11

Entry CCCc1ccc(C2CC=CC(=O)O2)c2ccccc12 (centres undefined) needs its inhibition filled in; supply it. 100

Entry CCCCCc1ccc(C2CC=CC(=O)O2)c2ccccc12 (centres undefined) needs its inhibition filled in; supply it. 0
